Reference for the values: ChEMBL document CHEMBL4000144

Below, each of the compounds is paired with its reported inhibition at 72 h, 50 ug/ml value.
# protocol.summary: Cytotoxicity against mouse RAW264.7 cells assessed as inhibition of cell viability at 50 ug/ml after 72 hrs by Cell Titer 96 non-radioactive cell proliferation assay
# Format: cell-based
Provide the reading as a plain figure in %.

{"columns": ["structure.as.smiles", "u", "endpoint.value"],
 "data": [
  ["O=S(=O)(c1ccc(Cl)cc1)N1CCN(c2nc3ccccc3c3ccccc23)CC1", "%", 20.9],
  ["O=C(CCc1c[nH]c2ccccc12)N1CCN(c2nc3ccccc3c3ccccc23)CC1", "%", 34.6]
]}

Moving on to another compound below.
// fetch inhibition at 72 h, 50 ug/ml given entry `O=C(c1cccnc1)N1CCN(c2nc3ccccc3c3ccccc23)CC1`
19.2

###

# protocol.summary: Selectivity index, ratio of IC50 for mouse RAW264.7 cells to MIC for Mycobacterium tuberculosis H37Rv ATCC 27294
# Format: toxicity
# experimental.context: read-out: Selectivity Index
Measured selectivity ratio, listed per entry for reference.

Recorded results for 3 molecules are shown here.
{"columns": ["structure.as.smiles", "selectivity ratio"],
 "data": [
  ["O=S(=O)(c1ccc(F)cc1)N1CCN(c2nc3ccccc3c3ccccc23)CC1", 12.2],
  ["O=S(=O)(c1ccc(Br)cc1)N1CCN(c2nc3ccccc3c3ccccc23)CC1", 28.4],
  ["O=C(c1ccncc1)N1CCN(c2nc3ccccc3c3ccccc23)CC1", 57.4]
]}

Answer with the recorded selectivity ratio of `O=C(c1cccc([N+](=O)[O-])c1)N1CCN(c2nc3ccccc3c3ccccc23)CC1` only.
23.1

For `CC(C)(C)c1ccc(S(=O)(=O)N2CCN(c3nc4ccccc4c4ccccc34)CC2)cc1` , write its selectivity ratio.
55.4

Identify the reported selectivity ratio for the following entry. `O=S(=O)(c1ccc(Cl)cc1)N1CCN(c2nc3ccccc3c3ccccc23)CC1`
38.3

Let me know recorded selectivity ratio for `Cc1cc(S(=O)(=O)N2CCN(c3nc4ccccc4c4ccccc34)CC2)c(C)cc1Cl` , thanks.
11.5

Give the measured selectivity ratio for `O=C(c1cccnc1)N1CCN(c2nc3ccccc3c3ccccc23)CC1`
20.9

Hello, please tell me recorded selectivity ratio for this one: `COc1ccc(S(=O)(=O)N2CCN(c3nc4ccccc4c4ccccc34)CC2)cc1`
15.1

Determine from records and report selectivity ratio for `O=S(=O)(c1ccccc1)N1CCN(c2nc3ccccc3c3ccccc23)CC1`
13

Specify selectivity ratio for `O=C(CCc1c[nH]c2ccccc12)N1CCN(c2nc3ccccc3c3ccccc23)CC1` and stop.
11.5

Give the reported value of selectivity ratio for this record: `O=C(/C=C/c1ccccc1)N1CCN(c2nc3ccccc3c3ccccc23)CC1`
9.04

###

// values below are reported MIC99
# System: Mycobacterium tuberculosis
# protocol.summary: Antimycobacterial activity against Mycobacterium tuberculosis H37Rv ATCC 27294 after 5 days by microplate alamar blue assay
# Format: functional
# experimental.context: H37Rv ATCC 27294, 120 h

Here's what some known entries look like.
{"columns": ["structure.as.smiles", "reported.metric", "endpoint.value"],
 "data": [
  ["O=C(Cc1cccc2ccccc12)N1CCN(c2nc3ccccc3c3ccccc23)CC1", "MIC99", "> 50 µg/mL"],
  ["Nc1ccccc1C(=O)N1CCN(c2nc3ccccc3c3ccccc23)CC1", "MIC99", "> 50 µg/mL"]
]}

Give the measured MIC99 for `Cc1ccc(S(=O)(=O)N2CCN(c3nc4ccccc4c4ccccc34)CC2)cc1`
> 50 µg/mL
